Origin of values: patent US20030059769

# IC50 per record follows
- TARGET_SYSTEM: P-selectin (PS-Rg) (Homo sapiens, UniProt P16109 P16109:42-321)
- Sequence (P16109 42-321, one chain of several): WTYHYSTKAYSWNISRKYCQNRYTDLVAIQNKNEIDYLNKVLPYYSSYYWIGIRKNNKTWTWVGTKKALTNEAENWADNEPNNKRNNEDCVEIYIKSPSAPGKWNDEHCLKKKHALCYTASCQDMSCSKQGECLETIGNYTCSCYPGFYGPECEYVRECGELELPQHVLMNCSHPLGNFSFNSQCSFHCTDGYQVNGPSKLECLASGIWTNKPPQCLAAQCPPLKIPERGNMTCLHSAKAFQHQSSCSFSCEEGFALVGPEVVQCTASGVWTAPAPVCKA
- MEASUREMENT_NOTES: inhibition; sialyl-LewisX
- CONDITION_SET: tags: human IgG Fc fusion; chain copies: 2 (stated dimer)
PROPERTY_LABEL: IC50 (nM)

- PF380 (ssRNA, 2'-F C and U) RNA: GGGAGACAAGAAUAAACGCUCAACGAGCAAAAGUACUCACGGGACCAGGAGAUCAGCAACACGCGAGACGAAAUUCGACAGGAGGCUCACAACAGGC: 4
- CGCUCAACGAGCCAGGAACAUCGACGUCAGCAAACGCGAGCG (ssRNA, 2'-F C and U) [PF377s2]: 4
- CUCAACGAACCACGGGGAAAUCCACCAGUAACACGCGAG (ssRNA, 2'-F C and U) [PF398s1]: 2
- CUCAACGCACCAGGAACAACAAGAACCAUCAGUAAGCGCGAG (ssRNA, 2'-F C and U) [PF383s1]: 25
- CUCAACGAGCCAGGACUACGAUCAGCAAACGCGAG (ssRNA, 2'-F C and U) [PF377L1]: 4
- PA350 (ssRNA, 2'-NH2 C and U) RNA: GGGAGACAAGAAUAAACGCUCAAGCCCCAAACGCAAGUGAGCAUCCGCAACAGGGAAGAAGACAGACGAUUGAUUCGACAGGAGGCUCACAACAGGC: 2
- CACUCAACCGGCACCAGACUACGAUCAGCAUUGGCGAGUG (ssRNA, 2'-F C and U) [PF416s2]: 3
- CUCAACGCACCAGGAACAACGAGAACCAUCAGUAAACGCGAG (ssRNA, 2'-F C and U) [PF387s1]: 2
- CUCAACGAGCCAGGAACAUCGACGUCAGCAAACGCGAG (ssRNA, 2'-F C and U; 2'-OMe G 7,9,14,21,36 and A 8,15,18,22,27,31,37 as listed) [PF377M3]: 10
- PF422 (ssRNA, 2'-F C and U) RNA: GGGAGACAAGAAUAAACGCUCAACGUCAAGCCAGAAUCCGGAACACGCGAGAAAACAAAUCAACGACCAAUCGAUUCGACAGGAGGCUCACAAAGGC: 3
- CUCAACGAGCCAGGAACAUCGACGUCAGCAAACGCGAG (ssRNA, 2'-F C and U) [PF377s1]: 2
- CUCAACGAGCCAGGAACAUCGACGUCAGCAAACGCGAG (ssRNA, 2'-F C and U; 2'-OMe G 7,9,14 and A 8,15,18,27,31) [PF377M5]: 2
- PF411 (ssRNA, 2'-F C and U) RNA: GGGAGACAAGAAUAAACGCUCAACAACCCAACCAUCUAGAGCUUCGAACCAUGGUAUACAAGGGAACACAAAAUUCGCGGAGGCUCCAACAGGCGGC: 2
- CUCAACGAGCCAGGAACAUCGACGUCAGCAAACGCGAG (ssRNA, 2'-F C and U, 5' NH2) [PF377s1-5'NH2]: 2
- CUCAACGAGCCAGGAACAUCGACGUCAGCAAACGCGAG (ssRNA, 2'-F C and U, biotin) [PF377s1B]: 3
- PF381 (ssRNA, 2'-F C and U) RNA: GGGAGACAAGAAUAAACGCUCAAAGGAUCACACAAACAUCGGUCAAUAAAUAAGUAUUGAUAGCGGGGAUAUUCGACAGGAGGCUCACAACAGGC: 1
- PA341 (ssRNA, 2'-NH2 C and U) RNA: GGGAGACAAGAAUAAACGCUCAAGCCCCAAACGCAAGCGAGCAUCCGCAACAGGGAAGAAGACAGACGAAUGAUUCGACAGGAGGCUCACAACAGGC: 3
- GAAUCCGGAACACGCGAGAAAACAAAUCAACGACCAAUCGAUUCG (ssRNA, 2'-F C and U) [PF422s1]: 8
- CUCAACGAAUCAGUAAACAUAACACCAUGAAACAUAAAUAGCACGCGAG (ssRNA, 2'-F C and U) [PF373s1]: 3
